All values here come from patent US12162890B2.

Molecular target: HEK293 cells with stable expression of the GRIN1 gene and tetracycline-inducible expression of the GRIN2B gene (NMDA receptor, NR2B) (Homo sapiens, UniProt Q13224)
Sequence (Q13224 27-1484, other chains not shown): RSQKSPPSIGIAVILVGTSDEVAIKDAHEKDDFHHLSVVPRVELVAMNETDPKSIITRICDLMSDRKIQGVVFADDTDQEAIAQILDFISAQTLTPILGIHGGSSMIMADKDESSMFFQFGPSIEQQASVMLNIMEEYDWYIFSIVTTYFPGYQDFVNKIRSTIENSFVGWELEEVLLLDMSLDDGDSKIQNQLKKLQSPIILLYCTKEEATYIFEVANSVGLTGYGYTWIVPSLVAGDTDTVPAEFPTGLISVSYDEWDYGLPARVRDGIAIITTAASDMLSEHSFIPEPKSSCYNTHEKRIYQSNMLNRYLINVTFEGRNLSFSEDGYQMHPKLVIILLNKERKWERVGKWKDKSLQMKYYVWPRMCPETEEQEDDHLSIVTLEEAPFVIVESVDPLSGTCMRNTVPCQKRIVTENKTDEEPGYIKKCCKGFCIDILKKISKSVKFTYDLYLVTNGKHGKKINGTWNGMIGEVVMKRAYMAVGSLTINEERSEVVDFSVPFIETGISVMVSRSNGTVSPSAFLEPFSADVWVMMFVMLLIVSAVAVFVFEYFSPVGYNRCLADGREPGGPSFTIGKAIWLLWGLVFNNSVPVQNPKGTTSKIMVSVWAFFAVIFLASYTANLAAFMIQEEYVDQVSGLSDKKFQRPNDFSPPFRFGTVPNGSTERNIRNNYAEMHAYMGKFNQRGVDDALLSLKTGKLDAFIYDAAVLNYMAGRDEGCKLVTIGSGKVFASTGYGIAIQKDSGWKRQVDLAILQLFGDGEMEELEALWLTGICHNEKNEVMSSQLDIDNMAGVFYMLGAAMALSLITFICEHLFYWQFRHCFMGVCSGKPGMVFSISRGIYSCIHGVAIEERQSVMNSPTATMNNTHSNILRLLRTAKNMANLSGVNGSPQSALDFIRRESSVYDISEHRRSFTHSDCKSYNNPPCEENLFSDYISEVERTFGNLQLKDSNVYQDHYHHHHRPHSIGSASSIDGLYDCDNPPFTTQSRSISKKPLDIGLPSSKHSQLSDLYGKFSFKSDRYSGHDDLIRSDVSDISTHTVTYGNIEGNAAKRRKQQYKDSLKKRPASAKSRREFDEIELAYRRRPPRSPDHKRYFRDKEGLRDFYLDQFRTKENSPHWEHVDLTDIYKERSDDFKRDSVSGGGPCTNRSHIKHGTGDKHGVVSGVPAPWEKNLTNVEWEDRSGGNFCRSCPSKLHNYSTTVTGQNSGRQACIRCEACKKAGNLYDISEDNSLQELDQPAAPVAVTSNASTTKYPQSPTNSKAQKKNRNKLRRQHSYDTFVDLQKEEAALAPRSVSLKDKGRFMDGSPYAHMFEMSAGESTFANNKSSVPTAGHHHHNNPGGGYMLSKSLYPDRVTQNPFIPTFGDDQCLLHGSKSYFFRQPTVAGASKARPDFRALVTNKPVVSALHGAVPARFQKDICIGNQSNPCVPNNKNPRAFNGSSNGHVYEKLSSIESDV
Assay: Fluo-8 Ca2+ flux assay: reversal of Ro 25-6981-mediated suppression of the Ca2+ response to co-agonist (glutamate/glycine); further: test concentration or dose not given here
Assay type: cell-based
Conditions: reversal of the Ro 25-6981 suppression of the Ca2+ response to co-agonist (glutamate/glycine)
readoutLabel: Response Recovered (%)

CN(CC(F)(F)F)C(=O)Cn1ccc2scc(-c3ccc(F)c(Cl)c3)c2c1=O	4.1

[1] Cn1cc(-n2cc(-c3ccc(F)c(Cl)c3)c3c(=O)n(CC(=O)N4CCC(F)C4)ccc32)nn1 (centres unmarked)
[2] O=C(Cn1cnc2snc(-c3ccc(Cl)cc3)c2c1=O)N1CCCC1C(F)(F)F (centres unmarked)
[3] O=C(Cn1ccc2scc(-c3ccc(F)c(Cl)c3)c2c1=O)N1CCC(F)C1 (centres unmarked)
[4] O=C(Cn1cnc2ccn(-c3ccc(Cl)cc3)c2c1=O)N1CCOCC1
Kindly order the items shown according to Response Recovered (%), from the highest value down. Reply with the item labels sorted in the order that was asked for.
3, 1, 2, 4
(3: 81%, 1: 27%, 2: 9%, 4: 1%)

[P] Cc1nc(-c2ccc(F)c(C(F)(F)F)c2)c2c(=O)n(CC(=O)N3CCC(F)C3)ccn12 (centres unmarked)
[Q] CC1(F)CN(C(=O)Cn2ccn3cnc(-c4ccc(F)c(Cl)c4)c3c2=O)C1
Consider entries P and Q . Which has the numerically lower Response Recovered (%)? Could you answer with the label of the item you picked?
P
(P: 19%, Q: 34%)
